Target: human NK-1 receptor (Homo sapiens (Human), UniProt P25103)
Sequence (P25103 whole entry): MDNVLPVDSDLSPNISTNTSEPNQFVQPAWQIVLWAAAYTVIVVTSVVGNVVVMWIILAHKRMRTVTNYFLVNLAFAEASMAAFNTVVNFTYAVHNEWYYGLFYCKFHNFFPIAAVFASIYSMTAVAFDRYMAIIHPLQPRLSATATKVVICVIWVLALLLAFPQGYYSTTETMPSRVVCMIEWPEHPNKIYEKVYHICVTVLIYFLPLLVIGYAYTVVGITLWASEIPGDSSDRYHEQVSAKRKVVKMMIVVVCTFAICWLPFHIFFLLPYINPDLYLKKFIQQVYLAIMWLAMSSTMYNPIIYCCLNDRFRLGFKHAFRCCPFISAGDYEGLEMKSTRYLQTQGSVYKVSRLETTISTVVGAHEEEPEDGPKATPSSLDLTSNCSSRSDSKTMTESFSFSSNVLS
ENDPOINT LABEL: pKi
Interpret pKi as the negative base-10 log of the concentration measured in mol/L.

Study these solved cases before continuing.
• Cc1ccc(-c2nnc3n2CCN(C(=O)c2ccc(Cl)c(F)c2)[C@@H]3C)o1 = 4.89
• C[C@@H]1c2nnc(-c3csc(C(F)(F)F)n3)n2CCN1C(=O)c1ccc(F)c(F)c1 = 4.68
• C[C@@H]1c2nnc(-c3csc(C(F)(F)F)n3)n2CCN1C(=O)c1ccc(Cl)cc1 = 4.82
• Cc1ccc(-c2nnc3n2CCN(C(=O)c2ccc(F)c(Cl)c2)[C@@H]3C)o1 = 4.74
• Cc1ccc(-c2nnc3n2CCN(C(=O)c2cc(F)c(F)c(F)c2)[C@@H]3C)o1 = 4.57

Specify pKi for C[C@@H]1c2nnc(-c3csc(C(F)(F)F)n3)n2CCN1C(=O)c1ccc(Cl)c(F)c1 and stop. 4.92

Give pKi for the following molecule: C[C@@H]1c2nnc(-c3csc(C(F)(F)F)n3)n2CCN1C(=O)c1ccc(F)c(Cl)c1 5.03
